# Target under test: Human SGLT2 (Homo sapiens, UniProt P31639)
# Construct: expressed in transfected cells; host or cells: CHO-K1
# Sequence (P31639 whole entry): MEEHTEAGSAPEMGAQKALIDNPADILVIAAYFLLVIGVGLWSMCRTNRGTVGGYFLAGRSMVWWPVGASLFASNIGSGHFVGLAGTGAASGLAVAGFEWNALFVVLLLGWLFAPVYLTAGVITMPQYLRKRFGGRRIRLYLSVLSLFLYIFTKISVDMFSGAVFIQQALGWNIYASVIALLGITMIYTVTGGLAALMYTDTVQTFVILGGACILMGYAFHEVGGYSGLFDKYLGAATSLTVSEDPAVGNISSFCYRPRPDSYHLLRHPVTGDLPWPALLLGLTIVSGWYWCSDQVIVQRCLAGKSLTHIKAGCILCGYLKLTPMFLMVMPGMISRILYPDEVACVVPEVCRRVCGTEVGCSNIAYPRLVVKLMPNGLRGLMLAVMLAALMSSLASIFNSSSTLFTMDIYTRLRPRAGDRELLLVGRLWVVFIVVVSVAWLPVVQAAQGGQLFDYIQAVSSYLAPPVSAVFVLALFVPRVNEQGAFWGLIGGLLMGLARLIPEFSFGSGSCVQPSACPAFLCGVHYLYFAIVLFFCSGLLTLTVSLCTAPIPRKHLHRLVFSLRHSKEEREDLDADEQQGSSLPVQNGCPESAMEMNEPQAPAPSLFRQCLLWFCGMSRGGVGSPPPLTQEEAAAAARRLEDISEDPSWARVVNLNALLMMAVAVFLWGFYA
# Assay name: Sodium-dependent sugar uptake inhibition test in CHO-K1 cells stably expressing human SGLT2 (Test Example 2)
# Type: cell-based
# Experimental context: ratio of IC50 human SGLT1 to IC50 human SGLT2
Quantity: SGLT1/SGLT2

OC[C@H]1S[C@@H](c2ccc(Cl)c(Cc3ccc(O)cc3)c2)[C@H](O)[C@@H](O)[C@@H]1O: 1.3
CCOc1ccc(Cc2cc([C@@H]3S[C@H](CO)[C@@H](O)[C@H](O)[C@H]3O)ccc2C)cc1: 18.3
CCOc1ccc(Cc2cc([C@@H]3S[C@H](CO)[C@@H](O)[C@H](O)[C@H]3O)ccc2F)cc1: 10.9
CCOc1ccc(Cc2ccc(OC)c([C@@H]3S[C@H](CO)[C@@H](O)[C@H](O)[C@H]3O)c2)cc1: 115.4
CCOc1ccc(Cc2cc([C@@H]3S[C@H](CO)[C@@H](O)[C@H](O)[C@H]3O)ccc2Cl)cc1F: 12.5
CCOc1cc(F)c(Cc2cc([C@@H]3S[C@H](CO)[C@@H](O)[C@H](O)[C@H]3O)ccc2Cl)cc1F: 48.7
CCOc1ccc(Cc2cc([C@@H]3S[C@H](CO)[C@@H](O)[C@H](O)[C@H]3O)ccc2Cl)cc1Cl: 4.8
CCc1ccc(Cc2cccc([C@@H]3S[C@H](CO)[C@@H](O)[C@H](O)[C@H]3O)c2)cc1: 12.8
COc1cc(OC)c([C@@H]2S[C@H](CO)[C@@H](O)[C@H](O)[C@H]2O)cc1Cc1cc2ccccc2s1: 4.7
CCOc1ccc(Cc2cccc([C@@H]3S[C@H](CO)[C@@H](O)[C@H](O)[C@H]3O)c2)cc1: 9.7

I: OC[C@H]1S[C@@H](c2ccc(Cl)c(Cc3cc4ccccc4s3)c2)[C@H](O)[C@@H](O)[C@@H]1O
II: CCc1ccc(Cc2cc([C@@H]3S[C@H](CO)[C@@H](O)[C@H](O)[C@H]3O)c(OC)cc2C)cc1
query: Pick the one with the larger SGLT1/SGLT2: I vs II Please respond with the label that marks your chosen entry.
result: II

---

Where a name gives a salt, the structure may show the parent alone.
Quantity: melting point

Use the examples below as a reference point.
COc1ccc([C@@H]2S[C@H](CO)[C@@H](O)[C@H](O)[C@H]2O)cc1Cc1cc2ccccc2s1: 91 to 105 °C
CCOc1ccc(Cc2cc([C@@H]3S[C@H](CO)[C@@H](O)[C@H](O)[C@H]3O)c(OC)cc2Cl)cc1 (as salt: Na): 177 to 179 °C
CCOc1cc(F)c(Cc2cc([C@@H]3S[C@H](CO)[C@@H](O)[C@H](O)[C@H]3O)ccc2Cl)cc1F: 72 to 76 °C
CCOc1ccc(Cc2cc([C@@H]3S[C@H](CO)[C@@H](O)[C@H](O)[C@H]3O)ccc2Cl)cc1Cl: 79 to 82 °C
Clc1ccc([C@@H]2S[C@H](COCc3ccccc3)[C@@H](OCc3ccccc3)[C@H](OCc3ccccc3)[C@H]2OCc2ccccc2)cc1Cc1cc2ccccc2s1: 140 to 143 °C

query: // fetch melting point given entry CCc1ccc(Cc2cccc([C@@H]3S[C@H](COCc4ccccc4)[C@@H](OCc4ccccc4)[C@H](OCc4ccccc4)[C@H]3OCc3ccccc3)c2)cc1
result: 100 to 102.5 °C

query: // fetch melting point given entry OC[C@H]1S[C@@H](c2ccc(Cl)c(Cc3cc4ccccc4s3)c2)[C@H](O)[C@@H](O)[C@@H]1O
result: 105 to 115 °C

query: // fetch melting point given entry COc1ccc([C@@H]2S[C@H](COCc3ccccc3)[C@@H](OCc3ccccc3)[C@H](OCc3ccccc3)[C@H]2OCc2ccccc2)cc1Cc1cc2ccccc2s1
result: 133 to 135 °C

query: // fetch melting point given entry OC[C@H]1S[C@@H](c2cccc(Cc3cc4ccccc4s3)c2)[C@H](O)[C@@H](O)[C@@H]1O
result: 159.5 to 160 °C

query: // fetch melting point given entry CCOc1ccc(Cc2cc([C@@H]3S[C@H](CO)[C@@H](O)[C@H](O)[C@H]3O)c(O)cc2O)cc1
result: 186 to 190 °C
